# Test system: SF-539 CNS
# assay explanation: NCI tumour cell line growth inhibition, 48 h
reported metric: GI50

Lookup: Bench note: what GI50 did CCN1c2ccccc2C(Cl)(c2ccc(N(C)C)cc2)c2ccccc21 show?
Found: 15.5 µM

Lookup: # get_value(readout='GI50', item= O=c1cc(-c2ccccc2)[nH]n1-c1nc2ccccc2[nH]1 )
Found: 3.94 µM

Lookup: What does the record list as GI50 for O=C(Cc1cccc(OC(F)(F)F)c1)Nc1ccc(CCCCc2nnc(NC(=O)Cc3ccccn3)s2)nn1 ?
Found: 15.7 µM

Lookup: Sample N#C[S-].[Nd+3].c1ccc(-c2ccccn2)nc1.c1ccc(-c2ccccn2)nc1.c1ccc(-c2ccccn2)nc1 — what was its GI50?
Found: 3.78 µM

Lookup: Tell me the measured GI50 of O=C(Nc1ccccc1O)c1ccc(Oc2cccc(C(=O)Nc3ccccc3O)c2)cc1 , please.
Found: 1.61 µM

Lookup: Given S=C1Nc2ccc(Cl)cc2C2(c3ccccc3)N3CCN=C3NN12 (stereo not given) , state its recorded GI50.
Found: 36.7 µM

Lookup: Quick one: GI50 for C=CC(=O)N[C@H]1CCOC[C@H]1Nc1ncc2cc(-c3c(Cl)c(OC)cc(OC)c3Cl)ccc2n1 ?
Found: 12.5 µM

Lookup: Returns the measured GI50 for the input compound. Input: N#CC1=C(N)NC(=O)NC12Nc1ccccc1S2 (stereo not given)
Found: 20.8 µM

Lookup: Bench note: what GI50 did COc1ccc(C(=O)c2cc3c(OC)c(OC)c(OC)cc3[nH]2)cc1 show?
Found: 4.76 µM

Lookup: # input compound: COc1ccccc1C#Cc1ccccc1C#CCCCCCC#Cc1ccccc1C#Cc1ccccc1OC ; wanted: its GI50
Found: > 100 µM

* * *

# Test system: NCI-H460 lung
# assay explanation: NCI tumour cell line growth inhibition, 48 h
reported metric: TGI

Lookup: # returns recorded TGI (system: NCI-H460 lung) for COC(=O)/C=C(/C(=O)OC)c1c(C)c(C)c2c(C)cc(C)cc(C)c1-2
Found: > 100 µM

Lookup: What measured TGI is associated with NC(=S)Nc1[nH]c(=S)nc2c1SC1=N/C(=C\c3ccco3)C(=O)N12 on NCI-H460 lung?
Found: > 100 µM

Lookup: Record lookup: for NCI-H460 lung, what TGI belongs to CSc1ccc2c3c(n(C[C@H](O)CO)c(=O)c2c1)-c1ccccc1C3=O ?
Found: 2.33 µM

Lookup: Lab request: please report TGI under test system NCI-H460 lung for O=C1C(Br)=CC2(C=C1Br)CCNC1=C2C(=O)c2cccnc2C1=O
Found: 19.8 µM

Lookup: Find the measured TGI: item Cc1cn(CC2=NCC(C)(C)N2)c(=O)[nH]c1=O , target or system NCI-H460 lung.
Found: > 100 µM

Lookup: Query for NCI-H460 lung: what TGI does the record show for CCOC(=O)CNC(=O)C(C)NC(=O)C(NC(=O)CC(c1ncc[nH]1)c1ncc[nH]1)C(C)CC (centres undefined) ?
Found: > 100 µM

Lookup: Give NCI-H460 lung TGI for O=C1/C(=C/c2ccccc2[N+](=O)[O-])N=C(c2ccccc2)N1C1Nc2cc3c(cc2S1)NC(N1C(=O)/C(=C/c2ccccc2[N+](=O)[O-])N=C1c1ccccc1)S3 (centres undefined)
Found: > 100 µM

Lookup: Give NCI-H460 lung TGI for CC(C)(C)C1(COC(=O)c2ccc(N)cc2)COC1
Found: > 100 µM

Lookup: Requested read-out TGI, target or system NCI-H460 lung, entry C(=C\c1ccccc1)/C=N/c1nc2cc3sc(/N=C/C=C/c4ccccc4)nc3cc2s1
Found: > 100 µM

* * *

Assignment: determine reported GI50 for the given compounds.
# Test system: LOX IMVI melanoma
# assay explanation: NCI tumour cell line growth inhibition, 48 h

Lookup: # GI50 lookup, item CC(=O)OCC1OC(OC2CC3C(C)(C)C(O)CC[C@]3(C)C3CCC45CC4(CC[C@H]5C(C)CC(O)C4OC4(C)C)[C@]23C)C(O)C(O)C1O (stereo not given in full)
Found: 1.52 µM

Lookup: For the compound shown here, COc1cc2c[n+](C)c3c4ccccc4ccc3c2cc1OC (tested in a mixture with another compound) , give the reported GI50.
Found: 4.02 µM

Lookup: Sample COc1cc(-c2nc3sc4c(c3c(=O)[nH]2)CCCCCC4)cc(OC)c1OC — what was its GI50?
Found: 1.42 µM

Lookup: Find the recorded GI50 belonging to COc1ccc2nc3cc(Cl)ccc3c(NCCCNCCC(C)O)c2c1 (stereo not given) and report it.
Found: 0.356 µM

Lookup: I would be grateful if you could share the reported GI50 for O=C(c1ccco1)c1c(C(F)(F)F)n([O-])c2ccccc2[n+]1=O .
Found: 0.548 µM

Lookup: Returns the measured GI50 for the input compound. Input: NS(=O)(=O)c1cccc(N=Cc2c(O)[nH]c3ccccc23)c1
Found: > 25 µM

Lookup: Which GI50 is listed for COc1ccc2c(c1)C(=O)/C(=C/c1ncc([N+](=O)[O-])n1C)O2 ?
Found: 0.179 µM

Lookup: Report GI50 for C=C1C(=O)O[C@H]2[C@H]1CC/C(COC(=O)NCCc1c[nH]c3ccc(OC)cc13)=C\CC[C@@]1(C)O[C@@H]21 please.
Found: 1.32 µM

Lookup: Fill in: GI50 of Cc1cc(Cc2cc(C)cc(C(C)(C)C)c2O)c(O)c(C(C)(C)C)c1 is ___
Found: 7.55 µM

Lookup: Using the record for N#C[S-].[Nd+3].c1ccc(-c2ccccn2)nc1.c1ccc(-c2ccccn2)nc1.c1ccc(-c2ccccn2)nc1 , report its GI50.
Found: 4.23 µM

Lookup: Look at this compound and give its reported GI50. C=CC1CC12C(=O)C1OC2(C)C2C(=O)c3c(O)ccc(O)c3C(=O)C12 (stereo not given)
Found: 2.35 µM

Lookup: For the compound shown here, Cc1ccc2c(O)c(O)cc(NC(C)CCCN)c2n1 (stereo not given) , give the reported GI50.
Found: 4.55 µM

Lookup: Quick check: GI50 of Cc1c(C)[n+](=O)c(C)c(C)n1[O-] ?
Found: > 100 µM

Lookup: Using the record for CCN1c2ccccc2C(Cl)(c2ccc(N(C)C)cc2)c2ccccc21 , report its GI50.
Found: 3.67 µM

Lookup: // GI50 lookup, key: N#CC1=C(N)NC(=O)NC12Nc1ccccc1S2 (stereo not given)
Found: 22.9 µM

Lookup: What does the record list as GI50 for C=CCC1(O)c2cccc(NCCO)c2C(=O)c2c(NCCO)cccc21 ?
Found: > 100 µM

Lookup: May I ask what GI50 has been recorded for COc1cc(/C=C2\CN(C)C/C(=C\c3cc(CN4CCCCC4)c(O)c(OC)c3)C2=O)cc(CN2CCCCC2)c1O ?
Found: 2.34 µM

Lookup: Item under review: Cc1cc(C)c(O)c(CN(C)Cc2cc(Cl)cc(Cl)c2O)c1 . Reported GI50?
Found: 4.06 µM

Lookup: Tell me the measured GI50 of c1cn2cc(-c3ccc4cn[nH]c4c3)nc(Nc3ccc(N4CCOCC4)cc3)c2n1 , please.
Found: 17.8 µM

Lookup: Using the record for CO[C@@H]1CC(=O)C2(CC(=O)O[C@@H]2/C=C(\C)CCC=C(C)C)C[C@@H]1O (stereo not given in full) , report its GI50.
Found: 0.634 µM

* * *

# Tested on: UO-31 renal
# assay explanation: NCI tumour cell line growth inhibition, 48 h; in the data active = GI50 below about 0.43 µM; inactive = the rest
Outcome field: choose from active, inactive

Lookup: How was COc1ccc(C(=O)c2cc3c(OC)c(OC)c(OC)cc3[nH]2)cc1 classified in this test?
Found: inactive

Lookup: So what was the verdict on COc1ccccc1C#Cc1ccccc1C#CCCCCCC#Cc1ccccc1C#Cc1ccccc1OC in this test?
Found: inactive

Lookup: Just curious, what result did O=C(CCl)N1c2ccccc2Sc2ccc3ccccc3c21 get here?
Found: active

Lookup: Would you mind telling me which call this test gave CO[C@@H]1/C=C(C)/C=C/[C@@H](C)/C=C(\C)C(=O)OC(/C(C)=C/C=C(\C)CNC(=O)[C@H](CO)NC=O)[C@@H](C)/C=C/C=C/[C@H](OC)CC/C=C(C)/C=C/C1 (some centres undefined) ?
Found: active

Lookup: Tell me the recorded outcome of this test for N#CC1=C(N)NC(=O)NC12Nc1ccccc1S2 (centres undefined) .
Found: inactive

Lookup: In this assay, the call recorded for C=C1C(=O)O[C@H]2[C@H]1CC/C(COC(=O)NCCc1c[nH]c3ccc(OC)cc13)=C\CC[C@@]1(C)O[C@@H]21 was what?
Found: inactive

Lookup: Outcome logged for C=CCC1(O)c2cccc(NCCO)c2C(=O)c2c(NCCO)cccc21 in this assay:
Found: inactive

Lookup: Given O=C(NC1CCN(Cc2ccccc2)CC1)c1cc2nc(-c3ccc(Cl)s3)cc(C(F)(F)F)n2n1 , state the outcome it received in this test.
Found: inactive

Lookup: Could you check what this test reported for O=C(N/N=C/c1ccc([N+](=O)[O-])cc1)c1ccc2nc(-c3ccc(Cl)cc3)[nH]c2c1 ?
Found: inactive
